tgt: UniProt:P11387
Sequence (P11387 whole entry): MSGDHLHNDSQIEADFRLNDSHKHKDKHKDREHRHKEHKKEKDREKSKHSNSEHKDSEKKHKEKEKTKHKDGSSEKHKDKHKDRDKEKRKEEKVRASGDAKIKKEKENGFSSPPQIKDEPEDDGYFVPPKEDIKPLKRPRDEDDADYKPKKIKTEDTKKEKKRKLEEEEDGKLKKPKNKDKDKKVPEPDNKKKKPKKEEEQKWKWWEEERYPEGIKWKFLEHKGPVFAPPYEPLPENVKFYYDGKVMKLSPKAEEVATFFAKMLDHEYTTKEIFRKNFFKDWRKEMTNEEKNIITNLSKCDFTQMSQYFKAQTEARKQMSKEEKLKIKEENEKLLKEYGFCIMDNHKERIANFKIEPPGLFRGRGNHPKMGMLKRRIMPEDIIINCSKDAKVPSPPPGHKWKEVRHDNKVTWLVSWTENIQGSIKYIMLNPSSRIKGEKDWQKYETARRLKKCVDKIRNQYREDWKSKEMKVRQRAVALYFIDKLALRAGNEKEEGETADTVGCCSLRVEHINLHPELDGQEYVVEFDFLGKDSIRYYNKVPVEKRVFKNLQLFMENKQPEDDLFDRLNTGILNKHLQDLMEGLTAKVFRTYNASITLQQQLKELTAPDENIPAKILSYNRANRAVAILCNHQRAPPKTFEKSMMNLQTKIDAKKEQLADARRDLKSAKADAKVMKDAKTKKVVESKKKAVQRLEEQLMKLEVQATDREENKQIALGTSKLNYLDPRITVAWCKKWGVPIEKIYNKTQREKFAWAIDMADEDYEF
test-details: Inhibition of topoisomerase 1 upto 50 uM
Activity calls are given as the source filed them. The calls are words filed in the database; no cut-off is given here.
recorded-metric: Activity

The examples below pair each entry with its known result.
| mol | Activity |
| --- | --- |
| CN1C(=O)c2c(n3ccnc3c3[nH]c4ncccc4c23)C1=O | inactive |
| O=C1NC(=O)c2c1c1c3ccccc3[nH]c1c1cccn21 | inactive |
| CN1C(=O)c2c(n3cccc3c3[nH]c4ccc(OCc5ccccc5)cc4c23)C1=O | inactive |
| CN1C(=O)c2c(n3cccc3c3[nH]c4ccccc4c23)C1=O | inactive |

Now examine the next entry.
*Q* Answer with reported Activity of "CN1C(=O)c2c(n3ccnc3c3c2c2cccnc2n3[C@@H]2O[C@H](CO)[C@@H](O)[C@H](O)[C@H]2O)C1=O"
*A* inactive

###

tgt: Serine/threonine-protein kinase Chk1 (Homo sapiens, UniProt O14757)
Sequence (O14757 whole entry): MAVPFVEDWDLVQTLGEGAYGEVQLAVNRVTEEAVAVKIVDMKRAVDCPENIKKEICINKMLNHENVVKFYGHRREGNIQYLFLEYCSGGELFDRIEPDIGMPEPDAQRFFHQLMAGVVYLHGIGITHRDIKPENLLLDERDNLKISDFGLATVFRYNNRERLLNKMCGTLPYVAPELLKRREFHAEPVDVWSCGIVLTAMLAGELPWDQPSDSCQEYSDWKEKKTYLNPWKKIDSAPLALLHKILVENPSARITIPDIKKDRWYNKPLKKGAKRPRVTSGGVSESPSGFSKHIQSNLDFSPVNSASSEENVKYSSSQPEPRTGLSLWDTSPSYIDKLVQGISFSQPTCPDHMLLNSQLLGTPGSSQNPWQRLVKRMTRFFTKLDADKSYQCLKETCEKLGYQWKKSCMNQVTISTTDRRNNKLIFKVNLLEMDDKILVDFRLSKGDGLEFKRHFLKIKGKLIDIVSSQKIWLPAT
recorded-metric: pIC50
Field pIC50 (float): negative decimal logarithm of the concentration in molar.

| molecule | pIC50 |
| --- | --- |
| O=C1NC(=O)c2c1c1c3cc(Br)ccc3[nH]c1c1cccn21 | 7.18 |
| O=C1NC(=O)c2c1c1c3ccccc3[nH]c1n1cncc21 [ISOGRANULATIMIDE] | 6.36 |
| O=C1NC(=O)c2c1c1c3cc(O)ccc3[nH]c1c1cccn21 | 7.80 |
| O=C1NC(=O)c2c1c1c3cccnc3[nH]c1c1cccn21 | 5.44 |
| O=C1NC(=O)c2c1c1[nH]cnc1c1[nH]c3ccccc3c21 [GRANULATIMIDE] | 7.10 |

Next:
*Q* Quickly give me recorded pIC50 for "O=C1NC(=O)c2c1c1c3cc(OCc4ccccc4)ccc3[nH]c1c1cccn21"
*A* 6.19

###

The entries below come with measured inhibition values attached.
tgt: UniProt P12931
Sequence (P12931 2-536 limits assumed): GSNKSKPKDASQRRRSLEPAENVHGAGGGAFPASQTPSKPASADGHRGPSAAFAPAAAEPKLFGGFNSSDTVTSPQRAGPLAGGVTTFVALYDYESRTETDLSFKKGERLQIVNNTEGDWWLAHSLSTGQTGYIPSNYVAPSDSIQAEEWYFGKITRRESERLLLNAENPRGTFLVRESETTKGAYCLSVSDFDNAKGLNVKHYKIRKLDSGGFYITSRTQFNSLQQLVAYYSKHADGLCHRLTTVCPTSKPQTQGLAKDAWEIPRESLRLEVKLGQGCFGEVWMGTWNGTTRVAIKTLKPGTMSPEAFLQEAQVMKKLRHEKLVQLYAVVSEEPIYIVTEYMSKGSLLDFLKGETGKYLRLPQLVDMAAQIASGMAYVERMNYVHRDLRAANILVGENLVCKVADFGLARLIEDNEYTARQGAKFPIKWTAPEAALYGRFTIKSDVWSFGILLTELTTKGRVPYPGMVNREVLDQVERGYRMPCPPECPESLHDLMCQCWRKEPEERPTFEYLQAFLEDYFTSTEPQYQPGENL
test-details: Inhibition of Src tyrosine kinase at 1 uM after 20 mins
Write down the numeric answer in % and omit the unit.

| mol | recorded-metric | unit-abbreviation | result-value |
| --- | --- | --- | --- |
| O=C1NC(=O)c2c1c1c3cc(O)ccc3[nH]c1c1cccn21 | inhibition | % | 1.2 |
| O=C1NC(=O)c2c1c1c3ccccc3[nH]c1c1cccn21 | inhibition | % | 32.5 |
| O=C1NC(=O)c2c1c1c3cc(Br)ccc3[nH]c1c1cccn21 | inhibition | % | 22.3 |

Alright, here's another compound for you.
*Q* For the compound "O=C1NC(=O)c2c1c1c3cc(Cl)ccc3[nH]c1c1cccn21" , give its measured inhibition value.
*A* 22.1

###

tgt: Serine/threonine-protein kinase Chk1 (Homo sapiens)
test-details: Inhibition of human Chk1 at 10 uM
Reported inhibition by item:
Value expressed in %; do not type the unit.

Here is how some compounds turned out for inhibition.
| compound | inhibition (%) |
| --- | --- |
| CN1C(=O)c2c(n3ccnc3c3[nH]c4ncccc4c23)C1=O | 36.1 |
| CN1C(=O)c2c(n3cncc3c3[nH]c4ncccc4c23)C1=O | 11.6 |
| O=C1NC(=O)c2c1c1c3cc(Br)ccc3[nH]c1c1cccn21 | 87.9 |
| O=C1NC(=O)c2c1c1c3cccnc3[nH]c1c1cccn21 | 76.6 |
| CN1C(=O)c2c(n3cncc3c3c2c2cccnc2n3[C@@H]2O[C@H](CO)[C@@H](O)[C@H](O)[C@H]2O)C1=O | 15.1 |
| CN1C(=O)c2c(n3ccnc3c3c2c2cccnc2n3[C@@H]2O[C@H](CO)[C@@H](O)[C@H](O)[C@H]2O)C1=O | 10.7 |
| O=C1NC(=O)c2c1c1c3cc(Cl)ccc3[nH]c1c1cccn21 | 95.4 |
| CN1C(=O)c2c(n3cccc3c3[nH]c4ccc(O)cc4c23)C1=O | 54.1 |

*Q* Identify the reported inhibition for the following entry. O=C1NC(=O)c2c1c1[nH]cnc1c1[nH]c3ccccc3c21 [GRANULATIMIDE]
*A* 93.9

*Q* Fill in reported inhibition for this entry: "CN1C(=O)c2c(n3cccc3c3[nH]c4ccc(Cl)cc4c23)C1=O"
*A* 55.6

*Q* Note inhibition for the compound shown: "CN1C(=O)c2c(c3c4ccccc4[nH]c3c3cc[nH]c23)C1=O"
*A* 43.1

###

System: A549
test-details: Antiproliferative activity against human A549 cells […] by microculture tetrazolium assay
Type: functional, cell-based
Collected pIC50 values appear next to each entry.
Just so you know, pIC50 here is -log10 of the concentration in molar units; reply with that number alone.

The following compounds have reported results that may help.
| compound | pIC50 |
| --- | --- |
| CN1C(=O)c2c(n3cccc3c3[nH]c4ccc(Br)cc4c23)C1=O | 4.17 |
| O=C1NC(=O)c2c1c1[nH]cnc1c1[nH]c3ccccc3c21 [GRANULATIMIDE] | 4.94 |
| CN1C(=O)c2c(n3ccnc3c3c2c2cccnc2n3[C@@H]2O[C@H](CO)[C@@H](O)[C@H](O)[C@H]2O)C1=O | 3.89 |
| O=C1NC(=O)c2c1c1c3cc(O)ccc3[nH]c1c1cccn21 | 4.79 |
| O=C1NC(=O)c2c1c1c3ccccc3[nH]c1c1cccn21 | 5.70 |

*Q* State its pIC50: "CN1C(=O)c2c(n3cccc3c3[nH]c4ccc(OCc5ccccc5)cc4c23)C1=O"
*A* 4.70

*Q* State its pIC50: "CN1C(=O)c2c(n3cccc3c3[nH]c4ccc(O)cc4c23)C1=O"
*A* 5.06

All figures here come from ChEMBL document CHEMBL1149629.
